Provide the recorded CC50 for the entries that follow.
System: PANC-1
Run Description: SRB colorimetric assay of cell growth and viability, PANC-1
Format: cell-based, human
Experimental Parameters: 48 hours exposure; read-out: LC50 PANC-1
Where a SMILES comes first, the peptide text is derived from it. Bridges are numbered along the chain shown (N, C = ends). [ ]: non-standard residue; d: D form. The star is where a group is joined. d(aIle) = CC[C@H](C)[C@@H](N)C(=O)O; d(aThr) = C[C@@H](O)[C@@H](N)C(=O)O; Hexanoyl(5-Me) = CC(C)CCCC(=O)*; Orn = NCCC[C@H](N)C(=O)O; Dhb = C/C=C(\N)C(=O)O

| Compound | CC50 |
| --- | --- |
| C/C=C1\NC(=O)[C@H](Cc2ccccc2)NC(=O)[C@@H](C(C)C)NC(=O)[C@@H]([C@@H](C)CC)NC(=O)[C@H](NC(=O)[C@H](NC(=O)[C@H](CCCN)NC(=O)[C@H]2CCCN2C(=O)[C@H](NC(=O)[C@@H](NC(=O)[C@@H](NC(=O)[C@@H](C)NC(=O)CCCC(C)C)[C@@H](C)O)C(C)C)C(C)C)[C@@H](C)CC)[C@@H](C)OC(=O)[C@H](C(C)C)NC1=O [Compound 34, [D-Ala^13]-KF] | 5.21 µM |

stdin: Quick one: CC50 for C/C=C1\NC(=O)[C@H](Cc2ccccc2)NC(=O)[C@@H](C(C)C)NC(=O)[C@@H]([C@@H](C)CC)NC(=O)[C@H](NC(=O)[C@H](NC(=O)[C@H](CCCN)NC(=O)[C@H]2CCCN2C(=O)[C@H](NC(=O)[C@@H](NC(=O)[C@H](C)NC(=O)CCCC(C)C)C(C)C)C(C)C)[C@@H](C)CC)[C@@H](C)OC(=O)[C@H](C(C)C)NC1=O [Compound 52, [Ala^12, noD-Val^13]-KF] ({Hexanoyl(5-Me)}-AV[dV][dP][Orn][d(aIle)][d(aThr)][d(aIle)][dV]F[Dhb]V; ester 7-C) ?
stdout: 7.41 µM

src = patent US20070117743A1
